test system: BT-549; assay: drug sensitivity score (DSS), CellTox Green (DSS (AUC-based score)); higher = stronger drug effect (viability inhibition or cytotoxicity); extreme values may be limits of the assay; details: incubation time: 72 h
Below is a list of entries, each paired with its recorded drug sensitivity score value.
Enter the number alone.

# smiles-entry, drug sensitivity score
measured = [
    ("CO[C@H]1C[C@@H]2CC[C@@H](C)[C@@](O)(O2)C(=O)C(=O)N2CCCC[C@H]2C(=O)O[C@H]([C@H](C)C[C@@H]2CC[C@@H](OP(C)(C)=O)[C@H](OC)C2)CC(=O)[C@H](C)/C=C(\\C)[C@@H](O)[C@@H](OC)C(=O)[C@H](C)C[C@H](C)/C=C/C=C/C=C/1C", 0),
]

Enquiry: Query: drug sensitivity score; subject: `COCC[n+]1c2c(n(Cc3cnccn3)c1C)C(=O)c1ccccc1C2=O`
Return: 20.2

Enquiry: Please answer likewise for `Cc1ccc(NC(=O)c2ccc(CN3CCN(C)CC3)cc2)cc1Nc1nc(-c2cccnc2)cs1`
Return: 0

Enquiry: Please answer likewise for `Nc1cc(C(F)(F)F)c(-c2cc(N3CCOCC3)nc(N3CCOCC3)n2)cn1`
Return: 1.91

Enquiry: Please answer likewise for `COC(=O)c1ccc2c(c1)NC(=O)/C2=C(\Nc1ccc(N(C)C(=O)CN2CCN(C)CC2)cc1)c1ccccc1`
Return: 2.06

Enquiry: Please answer likewise for `Oc1ccc2c(c1)CC[C@H](c1ccccc1)[C@@H]2c1ccc(OCCN2CCCC2)cc1`
Return: 0

###

system: CAL-148; assay: drug sensitivity score (DSS), CellTiter-Blue viability (DSS (AUC-based score)); higher = stronger viability inhibition; extreme values may be limits of the assay; conditions: incubation time: 72 h
readout-type: drug sensitivity score
Enter the number alone.

Enquiry: Query: drug sensitivity score; subject: COC(=O)c1ccc2c(c1)NC(=O)/C2=C(\Nc1ccc(N(C)C(=O)CN2CCN(C)CC2)cc1)c1ccccc1 [BIBF 1120]
Return: 0

###

system: HCC1599; assay: normalised viability (% of control), CellTiter-Blue; higher = more viable cells (100 = DMSO, 0 = benzethonium chloride kill control); settings: incubation time: 72 h
Below is a list of entries, each paired with its recorded normalised viability value.
// units = %; emit number, no label

Consider the following illustrative entries.
# molecule, unit-string, normalised viability
rows = [
    ("Nc1cc(C(F)(F)F)c(-c2cc(N3CCOCC3)nc(N3CCOCC3)n2)cn1 [BKM-120] (1 nM)", "%", 82.8),
    ("Oc1ccc2c(c1)CC[C@H](c1ccccc1)[C@@H]2c1ccc(OCCN2CCCC2)cc1 [Lasofoxifene] (0.1 nM)", "%", 92.2),
    ("O=P1(N(CCCl)CCCl)NCCCO1 (stereo unspecified) [Cyclophosphamide] (4 nM)", "%", 81.6),
    ("O=C(/C=C/c1cccc(S(=O)(=O)Nc2ccccc2)c1)NO [Belinostat] (1 nM)", "%", 97.1),
]

Enquiry: Which measured normalised viability belongs to S=P(N1CC1)(N1CC1)N1CC1 [Thio-TEPA] (10 nM) , tested on HCC1599?
Return: 95.7

Enquiry: Please answer likewise for COc1cc2/c(=N/c3ccc(Br)cc3F)nc[nH]c2cc1OCC1CCN(C)CC1 [Vandetanib] (1 nM)
Return: 112
